Molecular target: Mitogen-activated protein kinase kinase kinase 14 (Homo sapiens)
Sequence (Q99558 whole entry, the tested form may be a part): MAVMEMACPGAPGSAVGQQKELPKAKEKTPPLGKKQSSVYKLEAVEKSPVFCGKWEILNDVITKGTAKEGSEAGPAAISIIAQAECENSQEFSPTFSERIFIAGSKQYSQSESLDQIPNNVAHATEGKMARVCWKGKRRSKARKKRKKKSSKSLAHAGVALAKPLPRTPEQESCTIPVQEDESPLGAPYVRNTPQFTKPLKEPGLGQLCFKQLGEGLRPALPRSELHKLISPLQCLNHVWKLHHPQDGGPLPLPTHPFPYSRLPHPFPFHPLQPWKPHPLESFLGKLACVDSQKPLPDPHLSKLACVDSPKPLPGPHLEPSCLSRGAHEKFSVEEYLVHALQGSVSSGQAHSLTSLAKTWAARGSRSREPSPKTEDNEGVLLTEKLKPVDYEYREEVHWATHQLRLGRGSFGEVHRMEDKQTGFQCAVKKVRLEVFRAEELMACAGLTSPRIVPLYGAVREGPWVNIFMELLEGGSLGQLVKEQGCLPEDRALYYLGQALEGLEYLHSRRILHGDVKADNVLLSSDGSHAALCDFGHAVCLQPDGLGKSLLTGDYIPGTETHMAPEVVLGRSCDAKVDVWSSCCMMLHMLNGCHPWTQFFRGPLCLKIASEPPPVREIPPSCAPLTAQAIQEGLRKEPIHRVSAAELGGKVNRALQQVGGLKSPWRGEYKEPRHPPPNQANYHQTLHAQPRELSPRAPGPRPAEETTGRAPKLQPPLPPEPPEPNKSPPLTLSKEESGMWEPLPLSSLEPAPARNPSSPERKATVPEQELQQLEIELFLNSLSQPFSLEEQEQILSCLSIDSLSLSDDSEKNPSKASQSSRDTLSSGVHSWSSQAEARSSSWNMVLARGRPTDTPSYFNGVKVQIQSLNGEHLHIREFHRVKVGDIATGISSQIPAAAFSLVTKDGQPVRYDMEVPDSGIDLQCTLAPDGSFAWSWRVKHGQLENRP
Experiment: Binding affinity to wild-type human partial length NIK (L318 to P947 residues) expressed in mammalian expression system by Kinomescan method
pKd: −log10 of the molar value.

# record_smiles, pKd
measured = [
    ("C[C@@](O)(C#Cc1ccc(F)c(-c2c[nH]c3cnc(N)nc23)c1)c1nccs1", 8.31),
]

----------
Molecular target: Mitogen-activated protein kinase kinase kinase 14 (Homo sapiens)
Test: Inhibition of recombinant human N-terminal GST-tagged NIK (318 to 947 residues) expressed in baculovirus infected Sf9 cells using ultrapure ATP as substrate measured after 1 hr by ADP-glo assay
pIC50: −log10 of the molar value.
Label n if pIC50 falls below 6; label y in every other case.

# compound, system_under_test, class_label
data = [
    ("Nc1ncc2ccn(-c3ccnc(C#CC4(O)CCC4)c3)c2n1", "Mitogen-activated protein kinase kinase kinase 14 (Homo sapiens)", "y"),
    ("CC(O)(C#Cc1cc(-n2ccc3cnc(N)nc32)ccn1)c1nccs1 (stereo not given)", "Mitogen-activated protein kinase kinase kinase 14 (Homo sapiens)", "y"),
    ("CC(O)(C#Cc1ccc(F)c(-c2c[nH]c3cnc(N)nc23)c1)c1nccs1 (stereo not given)", "Mitogen-activated protein kinase kinase kinase 14 (Homo sapiens)", "y"),
    ("CN1CCC(O)(C#Cc2cccc(-c3c[nH]c4cnc(N)nc34)c2)C1=O (stereo not given)", "Mitogen-activated protein kinase kinase kinase 14 (Homo sapiens)", "y"),
    ("CN(C)C(=O)c1ccc(-n2ccc3cnc(N)nc32)cc1C#CC(C)(O)c1nccs1 (stereo not given)", "Mitogen-activated protein kinase kinase kinase 14 (Homo sapiens)", "n"),
    ("COCCOc1ccc(-n2ccc3cnc(N)nc32)cc1C#CC(C)(O)c1nccs1 (stereo not given)", "Mitogen-activated protein kinase kinase kinase 14 (Homo sapiens)", "n"),
    ("CC(O)(C#Cc1cc(-n2ccc3cnc(N)nc32)ccn1)C(=O)N1CCCC1 (stereo not given)", "Mitogen-activated protein kinase kinase kinase 14 (Homo sapiens)", "n"),
    ("C[C@](O)(C#Cc1ccc(F)c(-c2c[nH]c3cnc(N)nc23)c1)c1nccs1", "Mitogen-activated protein kinase kinase kinase 14 (Homo sapiens)", "n"),
    ("CCC(O)(C#Cc1cc(-n2ccc3cnc(N)nc32)ccn1)c1nccs1 (stereo not given)", "Mitogen-activated protein kinase kinase kinase 14 (Homo sapiens)", "n"),
    ("CC(O)(C#Cc1ccc(-n2ccc3cnc(N)nc32)cc1)c1nccs1 (stereo not given)", "Mitogen-activated protein kinase kinase kinase 14 (Homo sapiens)", "n"),
]

----------
Assay: Stability of the compound in pH 1 aqueous solution
Type: physicochemical
Conditions: buffer
measured_parameter: Stability

# compound, observed
records = [
    ("C[C@@](O)(C#Cc1ccc(F)c(-c2c[nH]c3cnc(N)nc23)c1)c1nccs1", "Stable"),
    ("CN1CCC(O)(C#Cc2ccc(F)c(-c3c[nH]c4cnc(N)nc34)c2)C1=O (centres undefined)", "Stable"),
    ("CC(O)(C#Cc1ccc(F)c(-c2c[nH]c3cnc(N)nc23)c1)c1nccs1 (centres undefined)", "Stable"),
]

----------
Test: Tmax in ICR mouse at 15 mg/kg, po by LC-MS/MS analysis
Format: ADME, organism-based
Conditions: in vivo
measured_parameter: Tmax (min)

# record_smiles, measured_parameter, observed
rows = [
    ("C[C@@](O)(C#Cc1ccc(F)c(-c2c[nH]c3cnc(N)nc23)c1)c1nccs1", "Tmax", 18),
]
